From: ChEMBL document CHEMBL1201862

# Tested on: NCI-H23
# TEST NAME: NCI tumour cell line growth inhibition, 48 h
The source made the active and inactive calls. Cut-off read from the data, not from the text of the source: active = GI50 up to about 1.1 µM and inactive = higher.
Classes used: 1 for active, -1 for inactive

- O=C(c1ccc(Cl)cc1)N(Cc1cccnc1)C(=S)N(Cc1cccnc1)C(=O)c1ccc(Cl)cc1: -1
- CC(CCCOC(c1ccccc1)(c1ccccc1)c1ccccc1)OC(=O)Nc1cc([N+](=O)[O-])cc([N+](=O)[O-])c1 (stereo not drawn): -1
- O=C1CNC(=O)N1 [HYDANTOIN]: -1
- COC(=O)/C=C(\S/C=C(/c1ccccc1)N1CCn2c(C(=O)c3ccccc3)c(C(=O)OC)c(C(=O)OC)c21)C(=O)OC: -1
- CC(=O)OC1C/C(C)=C/[C@H](O)CC(C)/C=C/[C@@]2(C)CCC(C(C)(C)O)C12 (stereo partly drawn): -1
- N#CCN(CC#N)C1CC=CCC1N(CC#N)CC#N (stereo not drawn): -1
- COC(=O)C1CC(C=[N+](C)C)=C(SC)N1 (stereo not drawn): -1
- CN(C)[C@@H]1C(O)=C(C(=O)NCN2CCN(C(=N)NC(=N)N)CC2)C(=O)[C@@]2(O)C(O)=C3C(=O)c4c(O)cccc4[C@@](C)(O)[C@H]3C[C@@H]12: 1
- CC(C)(C)OC(=O)N1C(=O)C2CCCC21 (stereo not drawn): -1
- COc1ccc(N2CN(C)CSC2=S)cc1: -1
- Cc1c(/C=N/NS(=O)(=O)c2ccccc2)no[n+]1[O-]: -1
- Clc1ccc(Cl)c2[s+]snc12: -1
- O=C1c2ccccc2NC(=S)[C@@H]2CCCN12: -1

###

# Test system: NCI-H522
# TEST NAME: NCI tumour cell line growth inhibition, 48 h
Active and inactive are the calls of the source. No stated cut-off is given here; in the data, active = GI50 up to about 1.1 µM and inactive = higher.
Classes used: yes for active, no for inactive

- COCCNC1CCC2(SCCS2)c2[nH]c3ccccc3c21 (centres undefined): no
- c1cc(CCN2CCCCC2)ccn1: no
- c1ccc2c(c1)[nH]c1c2ncc2[nH]c3ccccc3c21: no
- N#Cc1ccc(C2NN=CC23C(=O)c2ccccc2OC3c2ccccc2)cc1 (centres undefined): no
- S=c1sc2c(s1)SCCCCSCCCCSc1sc(=S)sc1SCCCCSCCCCS2: no
- CC(=O)c1c2c(cc3c1CC1(C3)Cc3cc4c(c(C(=O)O)c3C1)CCC4)CCC2 (centres undefined): no
- O=c1c2cccnc2ncn1CCN1CCCCC1: no
- CC(C)Oc1cccc(N2C(NCc3c[nH]c4ccccc34)=Nc3ccncc3S2(=O)=O)c1: no
- CC(C)(C)c1cc2c3c(c1)C(C(F)(F)F)(C(F)(F)F)O[Te]3(C)OC2(C(F)(F)F)C(F)(F)F: no
- COc1ccc(-n2cnc3c(NC(CCSC)C(=O)O)ncnc32)cc1 (centres undefined): no
- COc1cc(CNc2cnc3cc(N)ccc3n2)cc(OC)c1OC: no
- COC(=O)/C=C(\S/C=C(/c1ccccc1)N1CCn2c(C(=O)c3ccccc3)c(C(=O)OC)c(C(=O)OC)c21)C(=O)OC: yes
- Fc1ccc(C2SCc3nc4ccccc4n32)c(F)c1 (centres undefined): no
- Cc1ccc(NC(=O)CSc2nnc(Cc3ccccc3)o2)cc1: no
- COC1(OC)CC2C(=O)N(Cc3ccccc3)C1C(S(=O)(=O)c1ccccc1)C2C(C)S(=O)(=O)c1ccccc1 (centres undefined): no
- CCCCCCNC(=O)c1cnc(Cl)cn1: yes
- COC(CNC(=O)C(C)NC(=O)C(C)NC(=O)c1ccccc1)OC (centres undefined): no
- O=C(CC(C(=O)c1cccs1)c1ccccc1)c1ccccc1O (centres undefined): no
- N#C/N=C(/N)NCc1ccccc1: no
- O=C(O)Cn1cc([N+](=O)[O-])c(=O)c2ccccc21: no
- Cc1cc(C(C)(C)C)cc(CNC2CCCCC2)c1O: no
- O=C1Nc2ccccc2S/C1=C\c1ccc(C(F)(F)F)cc1: no
- O=C(Cn1ccnc1[N+](=O)[O-])c1ccc(F)cc1: no
- CC(C)(C)OC(=O)NCC(C#N)CNC(=O)OC(C)(C)C: no
- CC1=NN(C(=O)CC(=O)Nc2ccc(C)cc2)C(=O)C1/N=N/c1ccc(C(=O)O)cc1 (centres undefined): no
- CC1=C(C(=O)c2ccccc2)C23C(=O)N(c4ccccc4)C(=O)C2=C(O)C=CC3(O)N1 (centres undefined): no
- CCOc1ccccc1NC(=O)CCc1nnc2s/c(=C\CCc3ccccc3)c(=O)n12: no
- Cc1ccc(S(=O)ON2CCC(C(=O)O)(c3ccccc3)CC2)cc1 (centres undefined): no
- CCC1(O)CC(OC2CC(N(C)C)C(OC3CC(O)C(OC4CCC(=O)C(C)O4)C(C)O3)C(C)O2)c2c(cc3c(c2O)C(=O)c2c(O)ccc(O)c2C3=O)C1C(=O)OC (centres undefined): yes
- O=C1CN=C(c2ccccc2)c2ccncc2N1: no
- CCC1(C)C=Cc2c(cc(O)c3c(=O)c4ccccc4n(C)c23)O1 (centres undefined): no
- Cc1ccc2c(=O)c3ccccc3sc2c1: no
- N#Cc1c(C#N)c(-c2ccccc2)n(/N=C\c2ccccc2)c1N: no
- CNC(=O)C1CCC(=O)N1CN(C(C)=O)c1ccccc1 (centres undefined): no

###

# System: MDA-MB-435
# TEST NAME: NCI tumour cell line growth inhibition, 48 h
Active and inactive are the calls of the source. Rule as the data show it: active = GI50 up to about 1.1 µM and inactive = higher.
Classes used: active, inactive

• Cc1ncc(CO)c(/C=N/CCCCCC/N=C/c2c(CO)cnc(C)c2[O-])c1[O-].[Mg+2] = inactive
• CCCCc1ccc(Nc2cc(=O)n(C)c(=O)[nH]2)cc1 = inactive
• CC1(C)[C@@H]2CC[C@@]1(C)[C@@H]1O[C@@H](O[C@@H](CN)c3cc(Cl)c(OCc4ccccc4)c(OCc4ccccc4)c3)C[C@H]21 = active
• CC(=O)O[C@@H]1[C@@H](O)C2=C3[C@]4(C)[C@@H]1C(C)(C)C(=O)C[C@@H]4[C@]3(O)[C@H](OC(C)=O)[C@@]1(C[C@@H]1C)C2=O = inactive
• O=C1C=CC(=O)N1n1c(-c2ccccc2)n[nH]c1=O = inactive
• Cc1ccc(NCCCN2CCN(CCCNc3ccc(C)c4sc5ccccc5c(=O)c34)CC2)c2c(=O)c3ccccc3sc12 = inactive
• Cc1nc(-c2ccccc2)c(-c2ccccc2)s1 = inactive
• C=CCN1C[C@H](C)N([C@H](c2ccc(C(=O)N(CC)CC)cc2)c2cccc(OC)c2)C[C@H]1C [SNC-80] = inactive
• N=c1sc(N2CCOCC2)nn1CC(=O)c1ccccc1 = inactive
• COC(=O)C1CC(C=[N+](C)C)=C(SC)N1 (stereo not given) = inactive

###

# System: NCI/ADR-RES
# TEST NAME: NCI tumour cell line growth inhibition, 48 h
Activity calls are given as the source filed them. Cut-off read from the data, not from the text of the source: active = GI50 up to about 1.1 µM and inactive = higher.
In this section we review reported GI50 values for a set of compounds.
QUANTITY: GI50

• CO/N=C1/c2sccc2[C@H](NC(=O)C(F)(F)F)[C@@H]1O = > 100 µM (inactive)
• CNC(=O)c1cc(NC(=O)N(CCC#N)CCN(C(=O)N[C@@H](Cc2ccccc2)C(=O)N[C@@H](CC(C)C)C(=O)NC)c2ccccc2)ccc1OC = > 100 µM (inactive)
• COc1cc(C2(O)c3ccccc3C3=NCCN32)cc(OC)c1OC (stereo unspecified) = > 100 µM (inactive)
• C/C(=N/NC(=S)N1CCCCCC1)c1ccccc1O = 1.69 µM (inactive)
• CCOC(=O)C(=O)NNc1nc2c(s1)C(=O)c1ccccc1C2=O = 1.87 µM (inactive)
• C=CCn1c(=O)c(Br)nn(CCOCP(=O)(OCC)OCC)c1=O = > 100 µM (inactive)

###

# System: UACC-257
# TEST NAME: NCI tumour cell line growth inhibition, 48 h
Active and inactive are the calls of the source. Cut-off read from the data, not from the text of the source: active = GI50 up to about 1.1 µM and inactive = higher. Where a SMILES comes first, the peptide text is derived from it. [ ]: non-standard residue; d: D form. The star is where a group is joined. NMeAc5c = CNC1(C(=O)O)CCCC1; Boc = CC(C)(C)OC(=O)*; OBn = c1ccc(CO*)cc1
QUANTITY: GI50

- O=C1C=CC(S(=O)(=O)C2=C/C(=C/Nc3ccc(Cl)cc3)C(=O)C=C2)=C/C1=C/Nc1ccc(Cl)cc1: > 100 µM (inactive)
- O=c1[nH]c(=O)n(C2OC(CO)C(O)C2O)cc1OCCCc1ccccc1 (stereo not drawn): > 100 µM (inactive)
- Nc1nc(-c2ccccc2)c(Cl)c(-c2cc(Cl)ccc2O)n1: > 100 µM (inactive)
- FC(F)(F)c1cc(C2SCc3nc4ccccc4n32)cc(C(F)(F)F)c1 (stereo not drawn): > 100 µM (inactive)
- Cn1ccc(=NS(=O)(=O)c2ccccc2)cc1: > 100 µM (inactive)
- COCn1cnc2c(=O)n(-c3ccc(OC)cc3)c(=S)n(-c3ccc(OC)cc3)c21: > 100 µM (inactive)
- C=C1C(=O)OC2CC1C(O)C/C(C)=C/CC/C(C)=C/C(O)CC2C (stereo not drawn): 2.4 µM (inactive)
- CC(C)Oc1cccc(N2C(NCc3c[nH]c4ccccc34)=Nc3ccncc3S2(=O)=O)c1: 31.3 µM (inactive)
- C[C@]12CC[C@H](O)C[C@@H]1CC[C@@H]1[C@@H]2CC[C@]2(C)[C@@H](c3cc(C(F)(F)F)[nH]n3)CC[C@@H]12: 5.69 µM (inactive)
- Oc1c(/N=N\c2ccccc2)c2cccc3ccc4cccc1c4c32: > 100 µM (inactive)
- Cc1nc(-c2ccccc2)c(-c2ccccc2)s1: 25.1 µM (inactive)
- CCCCCCCCC/C=C/C=C/C(=O)NCC(=O)NC1C(O)C(O)C(Nc2ncnc3[nH]cnc23)OC1C(O)CO (stereo not drawn): 0.00444 µM (active)
- C=CCSC1=N/C(=C\c2ccc(OC)cc2)C(=O)N1CC=C: 23.2 µM (inactive)
- O=C1CNC(=O)N1: > 1120 µM (inactive)
- Nc1cc[nH]c(=O)n1: > 100 µM (inactive)
- CC(=O)Nc1ccc2[nH]c(C(=O)N3CC(CCl)c4c3cc(N)c3ccccc43)cc2c1 (stereo not drawn): 0.0172 µM (active)
- Cc1ccsc1/C=N/NC1=NCCN1: > 100 µM (inactive)
- CN(C(=O)C(Cc1ccccc1)NC(=O)OC(C)(C)C)C1(C(=O)NC(Cc2ccccc2)C(=O)OCc2ccccc2)CCCC1 (stereo not drawn) (Boc-Phe-[NMeAc5c]-Phe-OBn; configuration not given here): 57.3 µM (inactive)
- CC1CC[C@@]2(OC1)OC1C[C@H]3[C@@H]4CC=C5CC(OC6OC(CO)C(OC7OC(CO)C(O)C(OC8OCC(O)C(O)C8O)C7OC7OC(CO)C(OC8OC(C)C(OC9OC(C)C(O)C(O)C9O)C(O)C8O)C(O)C7O)C(O)C6O)CCC5(C)[C@H]4CCC3(C)C1[C@@H]2C (stereo partly drawn): 9.35 µM (inactive)
- CCSC1=N/C(=C\c2ccccc2O)C(Nc2ccc(C)cc2)=N1: 99.1 µM (inactive)
- O=C1C2CC=CCC2C(=O)N1n1c(Cc2ccc(Cl)cc2)n[nH]c1=O (stereo not drawn): > 100 µM (inactive)
- CCc1nc2c(O)ccc(O)c2nc1C: 17.4 µM (inactive)
- C#CCOCn1cnc2c(Sc3c([N+](=O)[O-])ncn3C)ncnc21: > 100 µM (inactive)
